B1: minF1; a variant is named by its letters at N, in order (parent)
chain: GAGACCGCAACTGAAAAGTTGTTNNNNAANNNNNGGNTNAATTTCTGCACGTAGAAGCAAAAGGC

Variants of: B1
TEST_DESCRIPTION: fraction ligated after 30 min (ligated reads / total reads); higher = more ligase activity
RUN_PARAMETERS: with F1*subA RNA substrate (template-directed ligation), 42 °C
Could you please classify the records by fraction ligated using these ranges: lower bin (below 0.003), middle bin (0.003 to below 0.006), upper bin (0.006 or more)

Which fraction ligated band matches `GAGACCGCAACTGAAAAGTTGTTATCGAAATGGAGGTTGAATTTCTGCACGTAGAAGCAAAAGGC` ?
middle bin

Categorize the following entry: `GAGACCGCAACTGAAAAGTTGTTATCAGAAAGGATGGGTTGTTTCTGCACGTAGAAGCAAAAGGC`
lower bin

Field: class (fraction ligated) — entry: `GAGACCGCAACTGAAAAGTTGTTTCGAAATGGATGGGTTGATTTCTGCACGTAGAAGCAAAAGGC`
upper bin

Hi, small favor: classify `GAGACCGCAACTGAAAAGTTGTTATCAGAAAGGAGGTTGAATTTCTGCACGTAGAAGCAAAAGGC` by its fraction ligated when you get a moment.
upper bin

Could you place `GAGACCGCAACTGAAAAGTTGTTATAGAAATGGGGGTTGAATTTCTGCACGTAGAAGCAAAAGGC` in its proper category? Many thanks.
middle bin

Which bin, given its fraction ligated, does `GAGACCGCAACTGAAAAGTTGTTCAGAAAGGATGGGTTGAATTTCTGCACGTAGAAGCAAAAGGC` occupy?
middle bin

Exercise: read the entry `GAGACCGCAACTGAAAAGTTGTTATCGAATGGATGGGTTAATTTCTGCACGTAGAAGCAAAAGGC` and state which class it falls under.
middle bin

Kindly identify the class of `GAGACCGCAACTGAAAAGTTGTATCAAAATGGATGGGTTGATTTCTGCACGTAGAAGCAAAAGGC` .
upper bin

Input `GAGACCGCAACTGAAAAGTTGTATCAGAAATGGATGGGTTGTTTCTGCACGTAGAAGCAAAAGGC` ; output its category
lower bin

Just checking, what class would you give `GAGACCGCAACTGAAAAGTTGTTTCAGAAATGATGGGTTAATTTCTGCACGTAGAAGCAAAAGGC` here?
lower bin

// bin(item) where item = `GAGACCGCAACTGAAAAGTTGTAAGAAATGGATGGGTTGAATTTCTGCACGTAGAAGCAAAAGGC`
middle bin

Which of the defined bands does the recorded fraction ligated of `GAGACCGCAACTGAAAAGTTGTTACAGAAAGATGGGTTGAATTTCTGCACGTAGAAGCAAAAGGC` sit within?
lower bin

Could you tell me which band `GAGACCGCAACTGAAAAGTTGTTACAGAAGGATGGGTTGAATTTCTGCACGTAGAAGCAAAAGGC` belongs to?
lower bin

Which class does `GAGACCGCAACTGAAAAGTTGTTTCAGAAATGGATGGTTGATTTCTGCACGTAGAAGCAAAAGGC` fall in?
upper bin

Category of `GAGACCGCAACTGAAAAGTTGTTATCAGAAAATGGGTTGAATTTCTGCACGTAGAAGCAAAAGGC` :
middle bin

For this variant, which bin applies? `GAGACCGCAACTGAAAAGTTGTTATCAGAAGATGGGTTGAATTTCTGCACGTAGAAGCAAAAGGC`
middle bin

// bin(item) where item = `GAGACCGCAACTGAAAAGTTGTTATCAAATGATGGGTTGAATTTCTGCACGTAGAAGCAAAAGGC`
middle bin

Tag the class for `GAGACCGCAACTGAAAAGTTGTTATCAAAATGGTGGTTGAATTTCTGCACGTAGAAGCAAAAGGC`
middle bin

Assign a category based on measured fraction ligated for `GAGACCGCAACTGAAAAGTTGTTTCAGAAATGATGGTTGAATTTCTGCACGTAGAAGCAAAAGGC` and give only the class name.
middle bin

Band assignment needed for `GAGACCGCAACTGAAAAGTTGTTATCAGAAAGATGGGTTGATTTCTGCACGTAGAAGCAAAAGGC` please.
upper bin

Bin? `GAGACCGCAACTGAAAAGTTGTATCAGAAATGGTGGTTGAATTTCTGCACGTAGAAGCAAAAGGC`
lower bin

State the class of the variant shown: `GAGACCGCAACTGAAAAGTTGTTATCAAAAGGATGGGTTAATTTCTGCACGTAGAAGCAAAAGGC`
middle bin

Which bin, given its fraction ligated, does `GAGACCGCAACTGAAAAGTTGTTATCAGAATATGGGTTGAATTTCTGCACGTAGAAGCAAAAGGC` occupy?
lower bin

Pick a category. Item: `GAGACCGCAACTGAAAAGTTGTTATCAGAATGATGGGTTGATTTCTGCACGTAGAAGCAAAAGGC`
upper bin

Note: place this variant into its band. Item: `GAGACCGCAACTGAAAAGTTGTTATAGAAAGGAGGGTTGAATTTCTGCACGTAGAAGCAAAAGGC`
lower bin

Determine which band this variant sits in: `GAGACCGCAACTGAAAAGTTGTTATCAGAAATGGTGGTTGATTTCTGCACGTAGAAGCAAAAGGC`
upper bin

Looking at `GAGACCGCAACTGAAAAGTTGTTTCAAAATGGATGGTTGAATTTCTGCACGTAGAAGCAAAAGGC` , which class would you pick?
upper bin

For this variant, which bin applies? `GAGACCGCAACTGAAAAGTTGTATAGAAATGGTGGGTTGAATTTCTGCACGTAGAAGCAAAAGGC`
lower bin

Where would `GAGACCGCAACTGAAAAGTTGTATCGAAATGGATGGTTGAATTTCTGCACGTAGAAGCAAAAGGC` land among the classes by reported fraction ligated?
upper bin

For `GAGACCGCAACTGAAAAGTTGTTATGAAATGGATGGGTTAATTTCTGCACGTAGAAGCAAAAGGC` , which fraction ligated bin applies?
lower bin

Where would `GAGACCGCAACTGAAAAGTTGTTATCAGAATGGATGGTTAATTTCTGCACGTAGAAGCAAAAGGC` land among the classes by reported fraction ligated?
upper bin

Band for the recorded fraction ligated of `GAGACCGCAACTGAAAAGTTGTATCAGAAATGATGGGTTAATTTCTGCACGTAGAAGCAAAAGGC` ?
middle bin

Which class does `GAGACCGCAACTGAAAAGTTGTTAAGAAAGGATGGGTTGAATTTCTGCACGTAGAAGCAAAAGGC` fall in?
lower bin

Form: Item = `GAGACCGCAACTGAAAAGTTGTTTCAGAATGGATGGGTTGATTTCTGCACGTAGAAGCAAAAGGC` ; Class = ?
upper bin

Any idea which band `GAGACCGCAACTGAAAAGTTGTTATCAAATGGTGGGTTGAATTTCTGCACGTAGAAGCAAAAGGC` is in?
upper bin

Note: place this variant into its band. Item: `GAGACCGCAACTGAAAAGTTGTTATCGAAGGATGGGTTGAATTTCTGCACGTAGAAGCAAAAGGC`
middle bin

Which fraction ligated category applies to `GAGACCGCAACTGAAAAGTTGTTTCAGAATGGATGGGTTAATTTCTGCACGTAGAAGCAAAAGGC` here?
middle bin

Determine which band this variant sits in: `GAGACCGCAACTGAAAAGTTGTTATAGAAATGATGGGTTAATTTCTGCACGTAGAAGCAAAAGGC`
lower bin

Consider `GAGACCGCAACTGAAAAGTTGTTATCAAATGGATGGGTTAATTTCTGCACGTAGAAGCAAAAGGC` . To which fraction ligated class does it belong?
upper bin

Any idea which band `GAGACCGCAACTGAAAAGTTGTATGAAATGGATGGGTTGAATTTCTGCACGTAGAAGCAAAAGGC` is in?
middle bin

Where would `GAGACCGCAACTGAAAAGTTGTTTCGAATGGATGGGTTGAATTTCTGCACGTAGAAGCAAAAGGC` land among the classes by reported fraction ligated?
upper bin

Which band does `GAGACCGCAACTGAAAAGTTGTATCAGATGGATGGGTTGAATTTCTGCACGTAGAAGCAAAAGGC` fall in?
upper bin

GET /class?item= `GAGACCGCAACTGAAAAGTTGTTTCAGAAATGGTGGTTGAATTTCTGCACGTAGAAGCAAAAGGC`
lower bin

Recorded values, source the supplement of paper PMC6755084.
